All values here come from patent US12037324B2.

- SUBJECT OF TEST: hAT1R (Homo sapiens, UniProt P30556)
- Sequence (P30556 whole entry): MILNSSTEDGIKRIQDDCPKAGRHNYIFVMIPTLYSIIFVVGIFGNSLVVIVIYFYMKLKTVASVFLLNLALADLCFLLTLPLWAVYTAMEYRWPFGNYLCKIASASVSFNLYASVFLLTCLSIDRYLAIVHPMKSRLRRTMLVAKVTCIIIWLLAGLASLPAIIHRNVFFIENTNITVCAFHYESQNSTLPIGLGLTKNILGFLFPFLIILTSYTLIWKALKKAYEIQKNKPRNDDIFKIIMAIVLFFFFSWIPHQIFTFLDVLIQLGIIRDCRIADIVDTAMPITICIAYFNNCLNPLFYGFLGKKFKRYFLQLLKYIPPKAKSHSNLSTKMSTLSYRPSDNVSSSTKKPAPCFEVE
- ASSAY SUMMARY: BRET Gq biosensor assay, agonist response, HEK293 cells
- Type: cell-based
- CONDITION CONTEXT: section of the 42nd table directly before the BRET P63 section
pEC50: −log10 of the molar value.
Returns rule met if the recorded pEC50 is greater than or equal to 7, and rule not met otherwise.

CCCCC1=NC2(CCCC2)C(=O)N1Cc1ccc(-c2cc(-c3ccccc3)ccc2-c2noc(=O)[nH]2)cn1; rule met
CCCCc1ncc(C(=O)O)n1Cc1ccc(-c2cc(-c3ccccc3)ccc2C(=O)O)cc1; rule not met
CCCc1nc(CC)c(C(=O)O)n1Cc1ccc(-c2cc(-c3ccccc3)ccc2-c2noc(=O)[nH]2)cc1; rule not met
CCCCC(=O)N(Cc1ccc(-c2cc(-c3ccccc3)ccc2-c2noc(=O)[nH]2)cc1)C1(C(=O)OC)CCCCC1; rule not met
CCCCC(=O)N(Cc1ccc(-c2cc(-c3cnn(C)c3)ccc2-c2nn[nH]n2)cc1)[C@H](C(=O)O)C(C)C; rule not met
CCOc1nc2cccc(C(=O)O)c2n1Cc1ccc(-c2cc(-c3ccc(C(=O)N(C)C)cc3)ccc2C(=O)O)cc1; rule not met
CCCCC(=O)N(Cc1ccc(-c2cc(-c3ccccc3)ccc2-c2nn[nH]n2)cc1)C(C)(C)C(=O)O; rule not met
CCOc1nc2cccc(C(=O)O)c2n1Cc1ccc(-c2cc(-c3cc(OC)ccn3)ccc2-c2nn[nH]n2)cc1; rule met
CCCc1nc(CC)c(C(=O)O)n1Cc1ccc(-c2cc(-c3ccccc3)ccc2C(=O)O)cc1; rule not met
CCCCc1ncc(C(=O)NCc2cc(C(C)C)no2)n1Cc1ccc(-c2cc(-c3ccccc3)ccc2-c2nn[nH]n2)cc1; rule met
CCCCc1nc(Cl)c(C(N)=O)n1Cc1ccc(-c2cc(-c3ccccc3)ccc2-c2nn[nH]n2)cc1; rule met
CCCCC(=O)N(Cc1ccc(-c2cc(-c3cccc(C)n3)ccc2-c2nn[nH]n2)cc1)C1(C(=O)O)CCCCC1; rule not met
CCCCc1ncc(C(=O)NCc2cnccn2)n1Cc1ccc(-c2cc(-c3ccccc3)ccc2-c2nn[nH]n2)cc1; rule met
CCCCc1ncc(C(=O)NC)n1Cc1ccc(-c2cc(-c3ccccc3)ccc2-c2nn[nH]n2)cc1; rule not met
CCOc1nc2cccc(C(=O)O)c2n1Cc1ccc(-c2cc(-c3cccnc3OC)ccc2-c2noc(=O)[nH]2)cc1; rule met
CCCCC(=O)N(Cc1ccc(-c2cc(Oc3cccnc3)ccc2-c2nn[nH]n2)cc1)C1(C(=O)O)CCCCC1; rule not met
CCCCc1nc(Cl)c(C(=O)O)n1Cc1ccc(-c2cc(N3CCCC(F)(F)C3)ccc2-c2nn[nH]n2)cc1; rule not met
CCCCc1ncc(C(=O)NC2CCCCC2)n1Cc1ccc(-c2cc(-c3ccccc3)ccc2-c2nn[nH]n2)cc1; rule met
CCOc1nc2cccc(C(=O)O)c2n1Cc1ccc(-c2cc(-c3ccccc3)ccc2-c2nn[nH]n2)cc1; rule met
CCc1nc2c(C)cc(C)nc2n1Cc1ccc(-c2cc(-c3ccccc3)ccc2-c2nn[nH]n2)cc1F; rule met
CCCCC(=O)N(Cc1ccc(-c2cc(-c3ccc(NC(C)=O)cc3)ccc2-c2nn[nH]n2)cc1)[C@H](C(=O)O)C(C)C; rule not met

----------
- SUBJECT OF TEST: hAT1R (Homo sapiens, UniProt P30556)
- ASSAY SUMMARY: cell-based
- CONDITION CONTEXT: Low AT1R Expression; read-out: BRET β-Arrestin2 Low AT1R Expression EC50
Field: label. Allowed values: Satisfied (EC50 < 30 nM) or Not satisfied (EC50 >= 30 nM).

CCCCC1=NC2(CCOC2)C(=O)N1Cc1ccc(-c2cc(-c3ccccc3F)ccc2-c2nnn[nH]2)cc1 (single isomer, unassigned) [Example 149]; Not satisfied
CCc1nc2c(C)cc(C)nc2n1Cc1ccc(-c2cc(-n3cccn3)ccc2-c2nn[nH]n2)cc1 [Example 25]; Not satisfied
CCc1nc2c(C)cc(C)nc2n1Cc1ccc(-c2cc(-c3ccccc3F)ccc2-c2nn[nH]n2)cc1 [Example 19]; Satisfied
Cc1ccnc(-c2ccc(-c3nn[nH]n3)c(-c3ccc(CN4C(=O)C5(CCCC5)N=C4C4CC4)cc3)c2)c1 [Example 120]; Not satisfied
CCc1nc2c(C)cc(C)nc2n1Cc1ccc(-c2cc(-c3nccs3)ccc2-c2nn[nH]n2)cc1 [Example 56]; Not satisfied
CCc1nc2c(C)cc(C)nc2n1Cc1ccc(-c2cc(-c3ccccc3)ccc2-c2noc(=O)[nH]2)cc1 [Example 32]; Satisfied

----------
This section presents compounds with their documented BRET P63 Ymax values.
- SUBJECT OF TEST: hAT1R (Homo sapiens, UniProt P30556)
- ASSAY SUMMARY: cell-based
- CONDITION CONTEXT: agonist mode
ENDPOINT: BRET P63 Ymax (%)

CCc1nc2c(C)cc(C)nc2n1Cc1ccc(-c2cc(Oc3cc(F)ccn3)ccc2-c2nn[nH]n2)cc1; 7.1
CCOc1nc2cccc(C(=O)O)c2n1Cc1ccc(-c2cc(Oc3ccccc3F)ccc2-c2nn[nH]n2)cc1; 13.9
CCCCC1=NC2(CCOC2)C(=O)N1Cc1ccc(-c2cc(-c3cc(C)ccn3)ccc2-c2nnn[nH]2)cc1 (single isomer, unassigned); 25.3
CCc1nc2c(C)cc(C)nc2n1Cc1ccc(-c2cc(Oc3cccc(F)n3)ccc2-c2nn[nH]n2)cc1; 30.5
CCc1nc2c(C)cc(C)nc2n1Cc1ccc(-c2cc(Oc3ncccc3F)ccc2-c2nn[nH]n2)cc1; 12.6
Cc1ccnc(-c2ccc(-c3nn[nH]n3)c(-c3ccc(CN4C(=O)C5(CCCC5)N=C4C(C)C)cc3)c2)c1; 21.8
CCc1nc2c(C)cc(C)nc2n1Cc1ccc(-c2cc(-c3cc(C)ccn3)ccc2-c2nn[nH]n2)cc1; 41.3
CCc1nc2c(C)cc(C)nc2n1Cc1ccc(-c2cc(-c3ccccc3)ccc2C(=O)O)cn1; 7.6
CCc1nc2c(C)cc(C)nc2n1Cc1ncc(-c2cc(-c3ccccc3O)ccc2-c2nnn[nH]2)cn1; 17.5
Cc1ccnc(-c2ccc(-c3nn[nH]n3)c(-c3ccc(CN4C(=O)C5(CCCC5)N=C4C4CC4)cc3)c2)c1; 17.8
CCc1nc2c(C)cc(C)nc2n1Cc1ccc(-c2cc(-c3ccccc3)ccc2-c2noc(=S)[nH]2)cc1; 11.8
CCc1nc2c(C)cc(C)nc2n1Cc1cnc(-c2cc(-c3cccc(C)c3)ccc2C(=O)O)cn1; 9.6
CCc1nc2c(C)cc(C)nc2n1Cc1ccc(-c2cc(-c3cccc(OC)c3)ccc2-c2nn[nH]n2)cc1; 12.0
CCOc1nc2cccc(C(=O)O)c2n1Cc1ccc(-c2cc(-n3ncc4ccccc43)ccc2-c2nn[nH]n2)cc1; 16.5

----------
Reported DiscoveRx β-arrestin2 Ymax (%) values follow for various compounds
- SUBJECT OF TEST: AGTR1 (Homo sapiens, UniProt P30556)
- Construct: host or cells: Pathunter CHO-K1 AGTR1 β-arrestin cell line (CHO-K1)
- ASSAY SUMMARY: DiscoveRx β-arrestin2 recruitment assay (enzyme complementation, Pathunter CHO-K1 AGTR1 β-arrestin cell line)
- Type: cell-based
- CONDITION CONTEXT: DiscoveRx β-arrestin2 recruitment, maximal response
ENDPOINT: DiscoveRx β-arrestin2 Ymax (%)

CCCCC1=NC2(CCCC2)C(=O)N1Cc1ccc(-c2cc(-c3ccc(C(=O)N(C)C)cc3)ccc2-c2nn[nH]n2)cc1 [Example 133]; 18.0%
CCOc1nc2cccc(C(=O)O)c2n1Cc1ccc(-c2cc(-c3cccnc3OC)ccc2-c2noc(=O)[nH]2)cc1 [Example 329]; 77.6%
CCc1nc2c(C)cc(C)nc2n1Cc1ccc(-c2cc(Nc3ccc(F)cc3)ccc2-c2nn[nH]n2)cc1 [Example 26]; 25.0%
CCc1nc2c(C)cc(C)nc2n1Cc1ccc(-c2cc(-c3cccnc3)ccc2-c2nn[nH]n2)cc1 [Example 52]; 5.0%

----------
Attribute: BRET P63 Ymax
- SUBJECT OF TEST: hAT1R (Homo sapiens)
- ASSAY SUMMARY: cell-based
- CONDITION CONTEXT: agonist mode
ENDPOINT: BRET P63 Ymax (%)

CCOc1nc2cccc(C(=O)O)c2n1Cc1ccc(-c2cc(-c3cc(OC(F)F)ccn3)ccc2-c2noc(=O)[nH]2)cc1 [Example 302]; 25.2
CCc1nc2c(C)cc(C)nc2n1Cc1ccc(-c2cc(-n3cc(C)cn3)ccc2-c2nnn[nH]2)cc1 [Example 217]; 32.1
CCCCC(=O)N(Cc1ccc(-c2cc(-c3cccc(OC)n3)ccc2-c2nn[nH]n2)cc1)C1(C(=O)O)CCCCC1 [Example 296]; 6.9
CCc1nc2c(C)cc(C)nc2n1Cc1ccc(-c2cc(C3CCCCO3)ccc2-c2nn[nH]n2)cc1 (single isomer, unassigned) [Example 78]; 36.1
CCOc1nc2cccc(C(=O)O)c2n1Cc1ccc(-c2cc(-c3ccccn3)ccc2-c2noc(=O)[nH]2)cc1 [Example 303]; 30.4
CCC1=NC2(CCOC2)C(=O)N1Cc1ccc(-c2cc(-c3cccc(C)c3)ccc2-c2nnn[nH]2)cc1 (single isomer, unassigned) [Example 166]; 22.7
CCC1=NC2(CCOC2)C(=O)N1Cc1ccc(-c2cc(-c3cccc(C)c3)ccc2-c2nnn[nH]2)cc1 (single isomer, unassigned) [Example 169]; 13.3
CCC1=NC2(CCOC2)C(=O)N1Cc1ccc(-c2cc(-c3ccccc3O)ccc2-c2nnn[nH]2)cc1 (single isomer, unassigned) [Example 170]; 13.5
CCCCC1=NC2(CCCC2)C(=O)N1Cc1ccc(-c2cc(-c3cc(OC)ccn3)ccc2-c2nn[nH]n2)cc1 [Example 141]; 14.9
CCCn1cc(-c2ccc(-c3nnn[nH]3)c(-c3ccc(Cn4c(CC)nc5c(C)cc(C)nc54)cc3)c2)nn1 [Example 236]; 36.2
CCc1nc2c(C)cc(C)nc2n1Cc1ccc(-c2cc(-c3ccccc3C)ccc2-c2nn[nH]n2)cc1 [Example 2]; 2.7
CCc1nc2c(C)cc(C)nc2n1Cc1ccc(-c2cc(-c3ccccc3)ccc2C(=O)NS(C)(=O)=O)cc1 [Example 244]; 15.3
CCOc1nc2cccc(C(=O)O)c2n1Cc1ccc(-c2cc(-c3cc(C)ccn3)ccc2-c2nn[nH]n2)cc1 [Example 309]; 28.6
